Molecular target: UniProt P41279
Sequence (P41279 30-397): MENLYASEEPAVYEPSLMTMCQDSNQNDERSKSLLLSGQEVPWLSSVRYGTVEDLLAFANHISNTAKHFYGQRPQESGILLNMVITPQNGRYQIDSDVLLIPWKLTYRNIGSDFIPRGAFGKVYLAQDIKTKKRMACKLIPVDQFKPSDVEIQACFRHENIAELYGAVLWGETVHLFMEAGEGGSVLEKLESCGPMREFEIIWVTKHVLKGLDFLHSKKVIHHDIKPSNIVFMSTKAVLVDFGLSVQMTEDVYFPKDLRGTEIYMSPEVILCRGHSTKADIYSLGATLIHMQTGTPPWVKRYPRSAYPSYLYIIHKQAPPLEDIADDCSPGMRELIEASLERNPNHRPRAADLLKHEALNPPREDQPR
Test: High Throughput Cot Biochemical Assay
Conditions: IC50 HTRF, Cot HTRF (TR-FRET KinEASE) biochemical assay, 400 μM ATP
assay metric: log10 of IC50 (log10 of the value in nM)
Hello, just confirming the data are log10 of IC50 with units of nM.

Sample records with log10 of IC50:
# molecule, assay metric, readout number
records = [
    ("Cn1ccc2c([C@H](Nc3cc(C#N)c4ncc(C#N)c(NCC(C)(C)C)c4c3)c3cn(C4(C(F)F)CC4)nn3)cccc21", "log10 of IC50", 1.49),
    ("Cc1ccc2c([C@H](Nc3cc(C#N)c4ncc(C#N)c(NCC(C)(C)C)c4c3)c3cn(C45CC(C4)C5)nn3)cccc2n1", "log10 of IC50", 0.48),
]

Can you look up the measured log10 of IC50 of CC(C)(C)CNc1c(C#N)cnc2c(C#N)cc(N[C@H](c3cn(C4CC4)nn3)c3csc4cnccc34)cc12 for me?
0.00

What value of measured log10 of IC50 is listed for CC(C)(CNc1c(C#N)cnc2c(Cl)cc(N[C@H](c3cn(C4(C(F)F)CC4)nn3)c3cccc4ncccc34)cc12)C(F)(F)F ?
0.85

What value of log10 of IC50 has been recorded for this entry: Cc1ncsc1[C@H](Nc1cc(C#N)c2ncc(C#N)c(NCC(C)(C)C)c2c1)c1cn(C2(C(F)(F)F)CC2)nn1
0.70

Request the reported log10 of IC50 associated with Cn1ccc2c([C@H](Nc3cc(Cl)c4ncc(C#N)c(NCC(C)(C)C)c4c3)c3cn(C45CCC(CC4)CC5)nn3)cccc2c1=O
1.26

Look at this molecule and give its reported log10 of IC50. COc1ccc2c([C@H](Nc3cc(Cl)c4ncc(C#N)c(NCC(C)(C)C)c4c3)c3cn(C4(C(F)(F)F)CC4)nn3)cccc2n1
1.52

If you can, please state the reported log10 of IC50 value of Cc1nc(F)ccc1[C@H](Nc1cc(C#N)c2ncc(C#N)c(NCC(C)(C)C)c2c1)c1nnn([C@@H](C)CF)c1F .
0.60

For the molecule shown here, Cc1nc(F)ccc1[C@H](Nc1cc(C#N)c2ncc(C#N)c(NCC(C)(C)C(F)(F)F)c2c1)c1nnn(C2(C)CC2)c1F , give the reported log10 of IC50.
0.30

// lookup log10 of IC50 for Cc1nc(F)ccc1[C@H](Nc1cc(C#N)c2ncc(C#N)c(NCC(C)(C)C(F)(F)F)c2c1)c1nnn([C@@H](C)CF)c1F
0.85

// log10 of IC50 lookup, key: CC(C)(C)CNc1c(C#N)cnc2c(Cl)cc(N[C@H](c3cn(C45CC(C4)C5)nn3)c3ccc(F)c4ncccc34)cc12
0.48

State the recorded log10 of IC50 for this entry: Cc1nc(F)ccc1[C@H](Nc1cc(C#N)c2ncc(C#N)c(NCC(C)(C)C)c2c1)c1cn(C2CC23CC3)nn1 (stereo partly shown)
0.00

# lookup: log10 of IC50 of CC(C)(CNc1c(C#N)cnc2c(Cl)cc(N[C@H](c3cn(C4(C(F)F)CC4)nn3)c3ccc(F)c4ncccc34)cc12)C(F)(F)F
0.48
